B1: scFv; the commonest letter at each place (parent)
chain 1: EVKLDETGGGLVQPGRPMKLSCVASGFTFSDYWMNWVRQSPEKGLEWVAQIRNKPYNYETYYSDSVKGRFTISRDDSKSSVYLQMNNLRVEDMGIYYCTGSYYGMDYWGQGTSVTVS
chain 2: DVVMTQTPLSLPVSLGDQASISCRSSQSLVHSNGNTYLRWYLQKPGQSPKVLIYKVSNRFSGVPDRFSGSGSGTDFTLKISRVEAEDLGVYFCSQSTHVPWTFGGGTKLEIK

- Variants of: B1
- protocol summary: Kd (Tite-Seq)
- assay context: with fluorescein; format: scFv 4-4-20, heavy + light
measured endpoint: Kd

Please review the following examples before continuing.
INSERT INTO measurements (variant_code, measured_value) VALUES
  ('chain 1 S30N W36D', '≥ 10 µM'),
  ('chain 1 Y102C D106L', '≥ 10 µM'),
  ('chain 1 T28A F29V', '0.00638 µM'),
  ('chain 1 Y102S M105N', '0.0038 µM'),
  ('chain 1 Y32T V37G', '≥ 10 µM'),
  ('chain 1 F29A M34S', '≥ 10 µM');

IN: Assign Kd to the following record: chain 1 S101D Y102F
OUT: ≥ 10 µM

IN: Note Kd for the variant shown: chain 1 D31L Y32M
OUT: ≥ 10 µM

IN: Entry chain 1 S30H N35E needs its Kd filled in; supply it.
OUT: ≥ 10 µM

IN: Look up and state reported Kd for chain 1 Y32S W33S
OUT: ≥ 10 µM

IN: Look up Kd of chain 1 G100I S101E and report it.
OUT: ≥ 10 µM

IN: Given chain 1 Y103V G109L , respond with its Kd.
OUT: ≥ 10 µM

IN: Recall and state the measured Kd for chain 1 M105E D106Y .
OUT: ≥ 10 µM

IN: Quick one: give measured Kd for chain 1 W33P N35Y
OUT: 0.205 µM
